Value source: paper PMC9387325

# System: Caco-2
# Assay Remarks: In vitro anti-proliferative activity (MTT assay)
# Format: cell-based, human
# Measurement Setup: Homo sapiens; Caco-2; mean of three replicates
Let's look at some molecules and their measured pIC50.
pIC50 here: minus log base 10 of the concentration, concentration in moles per litre.

Example entries and their recorded answers appear below.
COc1ccc2[nH]c(=O)c(/C=C3\SC(=O)N(CC(=O)Nc4ccccc4C)C3=O)cc2c1 : 3.78
COc1ccc(NC(=O)CN2C(=O)S/C(=C3\C(=O)Nc4ccccc43)C2=O)cc1 : 5.24
COc1ccc2[nH]c(=O)c(/C=C3\SC(=O)N(CC(=O)Nc4ccccc4)C3=O)cc2c1 : 4.03
COc1ccc(NC(=O)CN2C(=O)S/C(=C\c3cc4cc(OC)ccc4[nH]c3=O)C2=O)cc1 : 3.72

Q: Name the recorded pIC50 of the item COc1cccc2c1C(=O)c1c(O)c3c(c(O)c1C2=O)C[C@@](O)(C(=O)CO)C[C@@H]3O[C@H]1C[C@H](N)[C@H](O)[C@H](C)O1 [Doxorubicin, reference compound] in your answer.
Result: 5.09
